Target Or System: human mGluR5a receptor (Homo sapiens, UniProt P41594)
Construct: cDNA subcloned into pcDNA3.1(-)
Sequence (P41594 21-1180 isoform P41594-2 limits assumed): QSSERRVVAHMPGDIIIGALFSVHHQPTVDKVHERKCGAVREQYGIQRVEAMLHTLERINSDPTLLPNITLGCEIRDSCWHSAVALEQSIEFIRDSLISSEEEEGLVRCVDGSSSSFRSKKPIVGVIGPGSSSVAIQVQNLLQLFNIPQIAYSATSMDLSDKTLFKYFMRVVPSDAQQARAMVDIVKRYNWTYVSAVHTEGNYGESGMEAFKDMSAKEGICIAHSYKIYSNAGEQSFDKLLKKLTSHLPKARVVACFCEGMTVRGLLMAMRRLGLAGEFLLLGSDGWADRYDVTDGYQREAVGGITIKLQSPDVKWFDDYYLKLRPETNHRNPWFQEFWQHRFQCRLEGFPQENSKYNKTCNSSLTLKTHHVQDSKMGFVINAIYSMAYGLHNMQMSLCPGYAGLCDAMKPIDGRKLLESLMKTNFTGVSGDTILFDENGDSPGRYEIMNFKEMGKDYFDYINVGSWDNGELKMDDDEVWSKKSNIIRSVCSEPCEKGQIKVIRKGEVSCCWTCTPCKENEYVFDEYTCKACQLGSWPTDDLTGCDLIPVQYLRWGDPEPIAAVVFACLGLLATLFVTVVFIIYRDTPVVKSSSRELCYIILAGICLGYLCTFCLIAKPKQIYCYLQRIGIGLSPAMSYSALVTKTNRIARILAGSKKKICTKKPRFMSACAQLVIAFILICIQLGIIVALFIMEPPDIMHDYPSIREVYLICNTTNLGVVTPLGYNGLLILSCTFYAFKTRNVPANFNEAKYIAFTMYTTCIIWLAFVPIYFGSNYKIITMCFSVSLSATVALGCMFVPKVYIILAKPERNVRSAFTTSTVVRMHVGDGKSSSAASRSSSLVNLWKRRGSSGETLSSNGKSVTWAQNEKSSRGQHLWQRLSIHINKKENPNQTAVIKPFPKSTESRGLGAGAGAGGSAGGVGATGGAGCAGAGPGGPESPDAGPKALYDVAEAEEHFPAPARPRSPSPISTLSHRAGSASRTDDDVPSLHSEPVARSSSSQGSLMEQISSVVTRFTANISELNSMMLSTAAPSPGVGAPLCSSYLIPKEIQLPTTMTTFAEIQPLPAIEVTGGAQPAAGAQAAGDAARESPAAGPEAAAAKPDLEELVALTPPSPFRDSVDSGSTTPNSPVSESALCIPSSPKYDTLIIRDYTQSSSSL
Protocol Notes: Cell-based functional Ca2+ mobilization assay (FDSS), potentiation of glutamate EC20 response
Condition: HEK cells transfected with human mGluR5 (H10H or H12H); in presence of EC20 glutamate
Recorded pEC50 for the following molecules

| Molecule | pEC50 |
| --- | --- |
| Cc1cncc(N2CCn3nc(COc4ccccc4)cc3C2=O)n1 [Example 92] | 6.51 |
| Cc1cnnc(N2CCn3nc(COc4ccccc4)cc3C2=O)c1 [Example 93] | <4.52 |
| Cc1ccc(N2CCn3nc(COc4ccccc4)cc3C2=O)nc1N(C)C [Example 292] | 7.47 |
| COc1ccnc(N2CCn3nc(COc4ccccc4)cc3C2=O)c1 [Example 115] | 5.96 |
| O=C1c2cc(COc3ccccc3)nn2CCN1c1cccnc1 [Example 13] | 5.73 |
